# System: UACC-62 melanoma
# experimentalDetails: NCI-60 one-dose screen, 48 h (100 = growth as untreated, 0 = no growth, -100 = all killed)
# conditions: 10 µM unless noted
Compounds without any hit were thinned out: in the full panel of roughly 83,000, 20% have a hit.
readoutKind: growth (%)
Provide the reading as a plain figure in %.

These recorded examples may help you get a feel for the data.
# compound, systemUnderTest, readoutKind, measureUnit, measuredNumber
measured = [
    ("CCOC(=O)Nc1cc(-c2ccc(C)c(NS(C)(=O)=O)c2)nn2c(C)nnc12", "UACC-62 melanoma", "growth", "%", 12.9),
    ("COc1ccc(CNC(=O)c2c(C)n([O-])c3ccccc3[n+]2=O)cc1", "UACC-62 melanoma", "growth", "%", 96.8),
    ("COc1cc(/C=N/OC(=O)Nc2ccccc2)cc(OC)c1OC", "UACC-62 melanoma", "growth", "%", 90.5),
]

Prompt line: Look up growth for this compound: COC(=O)Nc1ccc2ccc3c(NC(=O)OC)ccc4ccc1c2c43 (tested in a mixture with another compound)
Response line: 41.5

Prompt line: Look up growth for this compound: CC(C)=CCNc1ncnc2c1ncn2C1OC(COP(=O)(O)O)C(O)C1O (stereo unspecified)
Response line: 69.6

Prompt line: Look up growth for this compound: Cc1cnc2nc(-c3ccc(N(C)C)cc3)cn2c1
Response line: 96

###

# Tested on: OVCAR-5 ovarian
# experimentalDetails: NCI-60 one-dose screen, 48 h (100 = growth as untreated, 0 = no growth, -100 = all killed)
# conditions: 10 µM unless noted
About 83,000 compounds went through this panel and 20% of them were active in at least one assay; those are over-represented in the sample as a whole.
Lab note: anything with growth below 90% is marked 1; values at 90% or higher are marked 0.

# molecule, assignedLabel
measured = [
    ("O=C1c2cccc(NCCN=Cc3ccccc3O)c2C(=O)c2c(NCCN=Cc3ccccc3O)cccc21", 1),
    ("CCCCN1c2nc3ccccc3cc2Sc2cc3ccccc3nc21", 0),
    ("C[C@@H]1[C@H]2[C@H](C=C3[C@@H]4CC[C@H]5Cc6nc7c(nc6C[C@]5(C)[C@H]4C[C@@H](O)[C@@]32C)C[C@@H]2CC[C@H]3C4=C[C@@H]5O[C@@]6(CC[C@](C)(CO)O6)[C@@H](C)[C@@]5(O)[C@@]4(C)[C@H](O)C[C@@H]3[C@@]2(C)C7)O[C@]12CCC(C)(C)O2", 1),
    ("CC(C)CC1NC(=O)C(CCCN)NC(=O)C(C(C)C)NC(=O)C2CCCN2C(=O)C(Cc2ccccc2)NC(=O)C(CC(C)C)NC(=O)C(CCCN)NC(=O)C(C(C)C)NC(=O)C2CCCN2C(=O)C(Cc2ccccc2)NC1=O (stereo not drawn)", 1),
    ("COc1cc(-c2nnc(-c3nc(-c4cc(OC)c(OC)c(OC)c4)n4ccccc34)o2)ccc1N", 0),
]

Prompt line: Does the reported growth of COc1cccc(CCN2C(=O)CCC3=C2CCC3=O)c1 stay below 90%?
Response line: 0

Prompt line: Does the reported growth of COc1cc(C2CC(C3C(=O)N(C)C(=O)N(C)C3=O)=NN2c2cc(Cl)cc(Cl)c2)cc(OC)c1OC (stereo not drawn) stay below 90%?
Response line: 0

Prompt line: Does the reported growth of CC(=O)N1N=C(c2ccc3c(c2)OCO3)CC1c1c(C)nn(-c2ccccc2)c1N(C)Cc1ccccc1 (stereo not drawn) stay below 90%?
Response line: 0

Prompt line: Does the reported growth of Cc1[nH]cnc1/C=C1\SC(N2CCCCC2)=NC1=O stay below 90%?
Response line: 0

Prompt line: Does the reported growth of O=C(N/N=C/c1ccc(Cl)cc1Cl)c1ccccc1Nc1cccc(C(F)(F)F)c1 stay below 90%?
Response line: 1

Prompt line: Does the reported growth of COc1ccc(-c2cc(-c3nnc(SCC(=O)Nc4ccc(C(C)=O)cc4)n3-c3ccccc3)c3ccccc3n2)cc1OC stay below 90%?
Response line: 0

Prompt line: Does the reported growth of CCCCCN(CCCCC)CCCNc1c2c(nc3ccc(Cl)cc13)CCCC2 stay below 90%?
Response line: 1

Prompt line: Does the reported growth of COc1ccc2cc(C3=CC(=O)CCC3)ccc2c1 stay below 90%?
Response line: 0

Prompt line: Does the reported growth of CCOC1Oc2ccccc2C(=O)/C1=N/c1nccs1 (stereo not drawn) stay below 90%?
Response line: 0

Prompt line: Does the reported growth of CC(=O)Nc1cc2c3c(cccc3c1)-c1ccccc1-2 stay below 90%?
Response line: 1

Prompt line: Does the reported growth of CC1c2ccccc2-c2ccccc2N1C (stereo not drawn) stay below 90%?
Response line: 0
